Biological target: acetylcholinesterase (AChE) (Homo sapiens, UniProt P22303)
Sequence (P22303 32-614, species assumed): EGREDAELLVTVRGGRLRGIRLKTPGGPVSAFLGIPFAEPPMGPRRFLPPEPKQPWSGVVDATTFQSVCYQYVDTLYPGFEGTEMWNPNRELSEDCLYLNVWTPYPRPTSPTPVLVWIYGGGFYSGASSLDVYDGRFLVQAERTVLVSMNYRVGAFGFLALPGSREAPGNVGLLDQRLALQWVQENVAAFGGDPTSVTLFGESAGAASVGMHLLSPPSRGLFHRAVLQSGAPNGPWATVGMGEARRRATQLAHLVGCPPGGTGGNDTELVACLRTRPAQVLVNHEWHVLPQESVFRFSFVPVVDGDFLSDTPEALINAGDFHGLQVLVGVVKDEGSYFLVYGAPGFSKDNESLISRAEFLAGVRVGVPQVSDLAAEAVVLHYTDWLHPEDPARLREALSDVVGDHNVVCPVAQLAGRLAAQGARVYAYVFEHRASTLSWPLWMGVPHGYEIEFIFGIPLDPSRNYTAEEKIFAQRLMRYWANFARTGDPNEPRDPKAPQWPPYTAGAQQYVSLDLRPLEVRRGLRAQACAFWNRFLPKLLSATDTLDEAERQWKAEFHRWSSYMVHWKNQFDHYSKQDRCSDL
Assay: biochemical
Settings: read-out: Anti ACHE IC50
pIC50: −log10 of the molar value.
Quick list: pIC50 per entry.
measurementName: pIC50

> print(dat)
                                   compound  measurementname  observed
1  O=c1cc(-c2cccc(O)c2)oc2cccc(O)c12 [Molecule M14, 5,3′-dihydroxyflavone]            pIC50    < 4.30
2  COc1cc(-c2cc(=O)c3ccc4c(O)cccc4c3o2)cc(OC)c1OC [Molecule M18]            pIC50    < 4.00
3  O=c1cc(-c2cccc(O)c2)oc2c1ccc1ccccc12 [Molecule M10, 3′-hydroxy-a-naphthoflavone]            pIC50    < 4.30

---

Molecular target: xanthine oxidase (XOD) (Homo sapiens, UniProt P47989)
Sequence (P47989 whole entry, species assumed): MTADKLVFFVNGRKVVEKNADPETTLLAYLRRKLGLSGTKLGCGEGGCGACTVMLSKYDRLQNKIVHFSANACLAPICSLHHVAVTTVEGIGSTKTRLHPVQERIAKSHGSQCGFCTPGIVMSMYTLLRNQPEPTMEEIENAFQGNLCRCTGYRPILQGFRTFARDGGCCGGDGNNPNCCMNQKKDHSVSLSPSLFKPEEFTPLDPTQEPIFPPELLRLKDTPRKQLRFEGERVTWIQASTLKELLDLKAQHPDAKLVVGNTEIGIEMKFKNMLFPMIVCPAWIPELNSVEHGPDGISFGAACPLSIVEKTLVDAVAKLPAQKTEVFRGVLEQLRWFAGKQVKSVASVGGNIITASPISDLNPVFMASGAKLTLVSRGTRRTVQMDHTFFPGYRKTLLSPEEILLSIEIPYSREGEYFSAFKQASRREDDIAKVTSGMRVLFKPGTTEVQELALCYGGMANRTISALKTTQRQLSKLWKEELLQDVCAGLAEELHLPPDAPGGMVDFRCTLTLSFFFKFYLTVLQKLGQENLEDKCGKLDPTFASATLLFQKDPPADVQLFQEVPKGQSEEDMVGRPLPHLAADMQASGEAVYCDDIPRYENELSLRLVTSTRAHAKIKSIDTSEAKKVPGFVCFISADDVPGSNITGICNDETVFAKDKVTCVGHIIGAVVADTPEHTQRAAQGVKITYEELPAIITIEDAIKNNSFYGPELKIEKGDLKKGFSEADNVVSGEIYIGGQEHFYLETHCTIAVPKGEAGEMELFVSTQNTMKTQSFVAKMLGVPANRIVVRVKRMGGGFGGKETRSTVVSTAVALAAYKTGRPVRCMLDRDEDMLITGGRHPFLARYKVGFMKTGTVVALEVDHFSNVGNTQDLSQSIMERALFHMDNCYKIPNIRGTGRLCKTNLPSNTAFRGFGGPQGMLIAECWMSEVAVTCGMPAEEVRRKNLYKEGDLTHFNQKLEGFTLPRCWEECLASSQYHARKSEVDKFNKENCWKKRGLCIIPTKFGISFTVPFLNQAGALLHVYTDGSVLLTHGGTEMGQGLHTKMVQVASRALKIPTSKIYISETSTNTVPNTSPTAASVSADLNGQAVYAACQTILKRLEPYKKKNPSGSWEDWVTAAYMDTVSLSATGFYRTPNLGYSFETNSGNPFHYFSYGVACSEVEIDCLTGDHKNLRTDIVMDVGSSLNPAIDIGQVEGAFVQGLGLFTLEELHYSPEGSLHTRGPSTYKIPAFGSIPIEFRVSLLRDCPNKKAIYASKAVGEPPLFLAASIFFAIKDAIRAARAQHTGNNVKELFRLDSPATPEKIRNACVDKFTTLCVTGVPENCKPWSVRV
Assay type: biochemical
Details: at 100 µM
measurementName: Anti XOD % (%)

> print(dat)
                                   molecule  observed
1  COc1cc(O)c2c(=O)cc(-c3ccc(O)cc3)oc2c1 [Molecule M12, 4′,5-dihydroxy-7-methoxyflavone]      58.2
2  O=c1cc(-c2cc(O)cc(O)c2)oc2ccccc12 [Molecule M8, 3′,5′-dihydroxyflavone]      75.3
3  COc1ccc(-c2cc(=O)c3c(O)cc(O[C@@H]4O[C@H](CO[C@@H]5O[C@@H](C)[C@H](O)[C@@H](O)[C@H]5O)[C@@H](O)[C@H](O)[C@H]4O)cc3o2)cc1O      45.3
